test system: HeLa-APL; assay: Inhibition of cell growth by colorimetric SRB assay, HELA-APL; assay type: cell-based; conditions: Homo sapiens; HELA-APL; 48 hours exposure; read-out: GI50
Quick rule for you: GI50 under 600 nM gets label 1, anything else gets label 0.

>  <MOLECULE>
C/C=C\[C@H](C)[C@H]1OC1(C)[C@@H](O)[C@@H](CO)C(=O)[C@H](CO)[C@H](O)CC(=O)CC (some centres unmarked)

>  <CLASS ASSIGNMENT>
label 0

$$$$

Input: Please let me know if C/C=C\[C@H](C)[C@H]1O[C@@]1(C)[C@@H](O)[C@@H](COC(C)=O)C(=O)[C@H](CO)[C@@H](O)CC(=O)CC shows GI50 below 600 nM.
Output: label 1

Input: Please let me know if C/C=C\[C@H](C)[C@H]1O[C@@]1(C)[C@@H](O)[C@@H](CO)C(=O)[C@H](CO)[C@@H](O)CC(=O)CC shows GI50 below 600 nM.
Output: label 1

Input: Please let me know if C/C=C\[C@H](C)[C@H]1OC1(C)[C@@H](O)[C@@H](CO)C(=O)[C@@H](CO)[C@H](O)CC(=O)CC (some centres unmarked) shows GI50 below 600 nM.
Output: label 0

----------
system: IGROV-ET; assay: Inhibition of cell growth by colorimetric SRB assay, IGROV-ET; format: cell-based; details: Homo sapiens; IGROV-ET; 48 hours exposure; total growth inhibition; read-out: TGI
// Not fulfilled strictly below 10 µM in IC (total growth inhibition); Fulfilled otherwise

Worked set:
>  <COMPOUND>
C/C=C\[C@H](C)[C@H]1OC1(C)[C@@H](O[Si](C)(C)C(C)(C)C)[C@@H](CO[Si](C)(C)C(C)(C)C)C(=O)[C@H](CO[Si](C)(C)C(C)(C)C)[C@@H](CC(=O)CC)O[Si](C)(C)C(C)(C)C (some centres unmarked) [Compound 19b]

>  <CLASS ASSIGNMENT>
Fulfilled

$$$$
>  <COMPOUND>
C/C=C\[C@H](C)[C@H]1OC1(C)[C@@H](O[Si](C)(C)C(C)(C)C)[C@@H](CO)C(=O)[C@H](CO)[C@H](O)CC(=O)CC (some centres unmarked) [20b + 20d]

>  <CLASS ASSIGNMENT>
Fulfilled

$$$$
>  <COMPOUND>
C/C=C\[C@H](C)[C@H]1OC1(C)[C@@H](O)[C@@H](CO)C(=O)[C@@H](CO)[C@H](O)CC(=O)CC (some centres unmarked) [3d + 4d]

>  <CLASS ASSIGNMENT>
Fulfilled

$$$$
>  <COMPOUND>
C=C(C(=O)[C@H](COC(C)=O)[C@H](O)C1(C)O[C@@H]1[C@@H](C)/C=C\C)[C@@H](O)CC(=O)CC (some centres unmarked) [Compound 1]

>  <CLASS ASSIGNMENT>
Not fulfilled

$$$$
>  <COMPOUND>
C/C=C\[C@H](C)[C@H]1OC1(C)[C@@H](O[Si](C)(C)C(C)(C)C)[C@@H](COC(C)=O)C(=O)[C@H](CO)[C@@H](O)CC(=O)CC (some centres unmarked) [Compound 46]

>  <CLASS ASSIGNMENT>
Fulfilled

$$$$

Input: Say whether C/C=C\[C@H](C)[C@H]1OC1(C)[C@@H](O[Si](C)(C)C(C)(C)C)[C@@H](COC(C)=O)C(=O)[C@H](CO)[C@H](O)CC(=O)CC (some centres unmarked) [Compound 43] shows IC (total growth inhibition) of 10 µM or more.
Output: Not fulfilled

Input: Say whether C/C=C\[C@H](C)[C@H]1OC1(C)[C@@H](O[Si](C)(C)C(C)(C)C)[C@@H](CO)C(=O)[C@H](CO)[C@@H](O)CC(=O)CC (some centres unmarked) [20a + 20c] shows IC (total growth inhibition) of 10 µM or more.
Output: Fulfilled

Input: Say whether C/C=C\[C@H](C)[C@H]1OC1(C)[C@@H](O[Si](C)(C)C(C)(C)C)[C@@H](COC(C)=O)C(=O)[C@H](COC(C)=O)[C@H](O)CC(=O)CC (some centres unmarked) [Compound 44] shows IC (total growth inhibition) of 10 µM or more.
Output: Not fulfilled

Input: Say whether C/C=C\[C@H](C)[C@H]1O[C@@]1(C)[C@@H](O)[C@@H](CO)C(=O)[C@H](CO)[C@@H](O)CC(=O)CC [3a + 4a] shows IC (total growth inhibition) of 10 µM or more.
Output: Not fulfilled

Input: Say whether C/C=C\[C@H](C)[C@H]1OC1(C)[C@@H](O[Si](C)(C)C(C)(C)C)[C@@H](CO[Si](C)(C)C(C)(C)C)C(=O)[C@@H](CO[Si](C)(C)C(C)(C)C)[C@H](CC(=O)CC)O[Si](C)(C)C(C)(C)C (some centres unmarked) [Compound 30a] shows IC (total growth inhibition) of 10 µM or more.
Output: Fulfilled

Input: Say whether C/C=C\[C@H](C)[C@H]1OC1(C)[C@@H](O[Si](C)(C)C(C)(C)C)[C@@H](CO[Si](C)(C)C(C)(C)C)C(=O)[C@H](CO[Si](C)(C)C(C)(C)C)[C@H](CC(=O)CC)O[Si](C)(C)C(C)(C)C (some centres unmarked) [Compound 19a] shows IC (total growth inhibition) of 10 µM or more.
Output: Fulfilled

Attribution: patent US7521478B2
